Target: NHE3 (Homo sapiens, UniProt P48764)
Construct: expressed in transfected cells
Sequence (P48764 26-834): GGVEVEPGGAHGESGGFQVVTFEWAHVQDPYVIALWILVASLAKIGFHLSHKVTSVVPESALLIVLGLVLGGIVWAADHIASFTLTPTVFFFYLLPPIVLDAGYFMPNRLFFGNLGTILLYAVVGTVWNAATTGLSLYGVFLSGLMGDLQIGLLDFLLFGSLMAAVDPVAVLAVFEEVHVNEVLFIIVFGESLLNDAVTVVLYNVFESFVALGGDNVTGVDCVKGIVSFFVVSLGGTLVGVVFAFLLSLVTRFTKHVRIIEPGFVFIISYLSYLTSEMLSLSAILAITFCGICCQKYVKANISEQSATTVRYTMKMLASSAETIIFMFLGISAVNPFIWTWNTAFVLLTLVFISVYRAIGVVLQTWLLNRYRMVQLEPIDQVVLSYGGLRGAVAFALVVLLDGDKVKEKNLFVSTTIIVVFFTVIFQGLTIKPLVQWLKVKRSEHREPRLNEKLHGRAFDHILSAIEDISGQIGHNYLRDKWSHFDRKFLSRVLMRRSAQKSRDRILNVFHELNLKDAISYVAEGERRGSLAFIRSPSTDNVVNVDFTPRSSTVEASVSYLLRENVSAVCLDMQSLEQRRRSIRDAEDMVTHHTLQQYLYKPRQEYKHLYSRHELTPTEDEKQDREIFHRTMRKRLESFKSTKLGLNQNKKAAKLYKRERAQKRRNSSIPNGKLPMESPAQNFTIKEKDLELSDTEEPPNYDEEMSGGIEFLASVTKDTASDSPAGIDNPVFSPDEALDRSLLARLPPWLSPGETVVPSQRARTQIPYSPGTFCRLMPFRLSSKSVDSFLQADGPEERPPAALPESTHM
Sequence (Q99653 2-195 partner limits assumed): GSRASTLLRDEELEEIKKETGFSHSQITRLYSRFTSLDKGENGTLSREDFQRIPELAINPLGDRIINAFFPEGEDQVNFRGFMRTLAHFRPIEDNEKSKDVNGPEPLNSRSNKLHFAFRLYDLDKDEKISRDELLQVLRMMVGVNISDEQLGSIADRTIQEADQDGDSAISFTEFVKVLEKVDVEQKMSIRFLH
Assay: Cell-based assay of NHE-3 activity (persistent inhibition), human
Conditions: human Persistence, 60 min incubation then washout
Method: The ability of compounds to inhibit human and rat NHE-3-mediated Na^+ dependent H^+ antiport after application and washout was measured using a modification of the pH sensitive dye method described above. PS120 fibroblasts stably expressing human NHE3 and NHERF2 were obtained from Mark Donowitz (Baltimore, Md.). […] Changes in intracellular pH were monitored using a FLIPR Tetra® (Molecular Devices, Sunnyvale, Calif.) by excitation at λex 439 to 505 nm, and measuring BCECF fluorescence at λem 538 nm. […]
Counter-ions that a name gives are not always drawn.
OUTCOME MEASURE: % inhibition

Worked cases, % inhibition given:
MOLECULE | % inhibition
Cc1cc(S(=O)(=O)N2CC[C@@H](COCCOCCNC(=O)NCCCCNC(=O)NCCOCCOC[C@@H]3CCN(S(=O)(=O)c4ccc(O[C@H]5c6cc(Cl)cc(Cl)c6C[C@@H]5N(C)C)c(C)c4)C3)C2)ccc1O[C@H]1c2cc(Cl)cc(Cl)c2C[C@@H]1N(C)C | C (>70%)
Cc1cc(S(=O)(=O)NCCOCCOCCNC(=O)NCCCCNC(=O)NCCOCCOCCNS(=O)(=O)c2cc(C)c(O[C@H]3c4cc(Cl)cc(Cl)c4C[C@@H]3N(C)C)cc2F)c(F)cc1O[C@H]1c2cc(Cl)cc(Cl)c2C[C@@H]1N(C)C | C (>70%)
CN(C)[C@H]1Cc2c(Cl)cc(Cl)cc2[C@@H]1Oc1ccc(S(=O)(=O)N[C@H]2CCN(CCOCCNC(=O)NCCCCNC(=O)NCCOCCN3CC[C@H](NS(=O)(=O)c4ccc(O[C@H]5c6cc(Cl)cc(Cl)c6C[C@@H]5N(C)C)c(F)c4)C3)C2)cc1F [Example 111, (trifluoroacetate)] | C (>70%)
O=C(NCCCCNC(=O)NCCOCCOCCNS(=O)(=O)c1ccc(O[C@H]2c3cc(Cl)cc(Cl)c3C[C@@H]2N2C3CCCC2CC3)cc1)NCCOCCOCCNS(=O)(=O)c1ccc(O[C@H]2c3cc(Cl)cc(Cl)c3C[C@@H]2N2C3CCCC2CC3)cc1 | C (>70%)
Cc1cc(S(=O)(=O)NCCOCCOCCNC(=O)NCCCCNC(=O)NCCOCCOCCNS(=O)(=O)c2ccc(O[C@H]3c4cc(Cl)cc(C(F)(F)F)c4C[C@@H]3N(C)C)c(C)c2)ccc1O[C@H]1c2cc(Cl)cc(C(F)(F)F)c2C[C@@H]1N(C)C | A (NHE3 < 40%)

Return reported % inhibition; argument: Cc1cc(S(=O)(=O)NCCOCCOCCNC(=O)NCCCCNC(=O)NCCOCCOCCNS(=O)(=O)c2ccc(O[C@H]3c4cc(Cl)cc(Cl)c4C[C@@H]3N(C)C)c(C)c2)ccc1O[C@H]1c2cc(Cl)cc(Cl)c2C[C@@H]1N(C)C [Example 22, dihydrochloride]
C (>70%)

Return reported % inhibition; argument: Cc1cc(S(=O)(=O)NCCOCCOCCNC(=O)NCCCCNC(=O)NCCOCCOCCNS(=O)(=O)c2cc(C)c(O[C@H]3c4cc(Cl)cc(Cl)c4C[C@@H]3N3CCC[C@@H](N)C3)cc2F)c(F)cc1O[C@H]1c2cc(Cl)cc(Cl)c2C[C@@H]1N1CCC[C@@H](N)C1
C (>70%)

Return reported % inhibition; argument: CN1CCCN([C@H]2Cc3c(C#N)cc(Cl)cc3[C@@H]2Oc2ccc(S(=O)(=O)N[C@@H]3CCN(CCOCCNC(=O)NCCCCNC(=O)NCCOCCN4CC[C@@H](NS(=O)(=O)c5ccc(O[C@H]6c7cc(Cl)cc(C#N)c7C[C@@H]6N6CCCN(C)CC6)cc5)C4)C3)cc2)CC1
A (NHE3 < 40%)

Return reported % inhibition; argument: Cc1cc(Cl)cc2c1C[C@H](N(C)C)[C@H]2Oc1ccc(S(=O)(=O)NCCOCCOCCNC(=O)NCCCCNC(=O)NCCOCCOCCNS(=O)(=O)c2ccc(O[C@H]3c4cc(Cl)cc(C)c4C[C@@H]3N(C)C)cc2)cc1
C (>70%)

Return reported % inhibition; argument: N[C@@H]1CCCN([C@H]2Cc3c(Cl)cc(Cl)cc3[C@@H]2Oc2ccc(S(=O)(=O)NCCOCCOCCNC(=O)NCCCCNC(=O)NCCOCCOCCNS(=O)(=O)c3ccc(O[C@H]4c5cc(Cl)cc(Cl)c5C[C@@H]4N4CCC[C@@H](N)C4)c(F)c3)cc2F)C1
C (>70%)

Return reported % inhibition; argument: Cc1cc(S(=O)(=O)NCCOCCOCCNC(=O)NCCCCNC(=O)NCCOCCOCCNS(=O)(=O)c2ccc(O[C@H]3c4cc(Cl)cc(Cl)c4C[C@@H]3N3CCN(C)CC3)c(C)c2)ccc1O[C@H]1c2cc(Cl)cc(Cl)c2C[C@@H]1N1CCN(C)CC1
B (40-70%)

Return reported % inhibition; argument: O=C(NCCCCNC(=O)NCCOCCOCCNS(=O)(=O)c1ccc(O[C@H]2c3cc(Cl)cc(Cl)c3C[C@@H]2N2C3CCCC2CCC3)cc1)NCCOCCOCCNS(=O)(=O)c1ccc(O[C@H]2c3cc(Cl)cc(Cl)c3C[C@@H]2N2C3CCCC2CCC3)cc1
B (40-70%)

Return reported % inhibition; argument: CN(C)[C@@H]1CCCN([C@H]2Cc3c(C#N)cc(Cl)cc3[C@@H]2Oc2ccc(S(=O)(=O)NCCOCCOCCNC(=O)NCCCCNC(=O)NCCOCCOCCNS(=O)(=O)c3ccc(O[C@H]4c5cc(Cl)cc(C#N)c5C[C@@H]4N4CCC[C@@H](N(C)C)C4)c(F)c3)cc2F)C1
A (NHE3 < 40%)

Return reported % inhibition; argument: Cc1cc(S(=O)(=O)NCCOCCOCCNC(=O)NCCCCNC(=O)NCCOCCOCCNS(=O)(=O)c2ccc(O[C@H]3c4cc(Cl)cc(F)c4C[C@@H]3N3CCC[C@@H](N)C3)c(C)c2)ccc1O[C@H]1c2cc(Cl)cc(F)c2C[C@@H]1N1CCC[C@@H](N)C1
A (NHE3 < 40%)

Return reported % inhibition; argument: CN(C)[C@H]1Cc2c(Cl)cc(Cl)cc2[C@@H]1Oc1c(F)cc(S(=O)(=O)NCCOCCOCCNC(=O)NCCCCNC(=O)NCCOCCOCCNS(=O)(=O)c2cc(F)c(O[C@H]3c4cc(Cl)cc(Cl)c4C[C@@H]3N(C)C)c(F)c2)cc1F
C (>70%)
